- Test system: LOX IMVI melanoma
- Protocol Summary: NCI tumour cell line growth inhibition, 48 h; in the data active means GI50 below about 0.43 µM; inactive means the rest
Response enum: yes = active, no = inactive

Assay result, entry `CN(C)c1ccccc1[CH2][Ga]([Cl])[CH2]c1ccccc1N(C)C` — outcome?
no

Any idea what this test logged for `O=[N+]([O-])c1ccc2c(c1)C(c1ccccc1Cl)=Nc1c(n[nH]c1-c1cccnc1)N2` ?
no

// outcome(item) with item = COc1cc(C2CC(=O)Nc3c2c(C)nn3-c2nc3ccccc3[nH]2)cc(OC)c1O (centres undefined)
no

What outcome does the record of this test show for `COc1ccc(NC(=O)c2ccc(NC3=C(Cl)C(=O)N(Cc4ccccc4)C3=O)cc2)c(OC)c1` ?
no

What was the test verdict on `O=C(O)c1cn(C2CC2)c2cc(N3CCN(Cc4c(O)ccc5ccccc45)CC3)c(F)cc2c1=O` ?
no

So what was the verdict on `Cc1[nH]nc2ncc(C(=O)N3CCC[C@H]3c3ccc(Cl)cc3)cc12` in this test?
no

Which outcome was assigned to `Cc1c2c(nn1-c1ccc(S(=O)(=O)NC(=S)NC(=O)c3ccccc3)cc1)-c1ccccc1CC2` in this test?
no

Can you look up the reported call for `CN(C)CCS(=O)(=O)Nc1cc(-c2ccc3ncc(C#N)c(Nc4ccc(F)c(Cl)c4)c3c2)cnc1Cl` for me?
yes

What did the test return for `CN(C)C=Nc1c(I)cc(I)c(CCC(=O)O)c1I` ?
no

Data credit: PubChem BioAssay (NCI)
